Measured values drawn from ChEMBL document CHEMBL1150387 for this set.

ASSAY TARGET: Ribosomal protein S6 kinase beta-1 (Homo sapiens) (UniProt P23443)
Sequence (P23443 whole entry, looked up): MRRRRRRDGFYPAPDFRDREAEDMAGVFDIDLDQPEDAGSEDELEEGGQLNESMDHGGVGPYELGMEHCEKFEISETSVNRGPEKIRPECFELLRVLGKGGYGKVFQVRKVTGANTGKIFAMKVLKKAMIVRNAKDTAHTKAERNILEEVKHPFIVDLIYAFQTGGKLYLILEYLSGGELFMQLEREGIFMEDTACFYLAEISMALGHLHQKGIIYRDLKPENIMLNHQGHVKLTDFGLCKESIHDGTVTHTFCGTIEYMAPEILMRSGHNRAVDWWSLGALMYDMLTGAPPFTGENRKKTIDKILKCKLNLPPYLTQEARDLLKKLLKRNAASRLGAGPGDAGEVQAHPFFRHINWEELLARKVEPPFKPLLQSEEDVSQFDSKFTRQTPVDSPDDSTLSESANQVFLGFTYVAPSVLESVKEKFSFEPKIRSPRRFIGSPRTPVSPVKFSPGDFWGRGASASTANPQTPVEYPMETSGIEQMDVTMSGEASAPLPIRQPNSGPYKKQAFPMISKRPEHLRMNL
TEST NAME: Inhibition of p70S6K at 10 uM by HTRF assay relative to control
# inhibition per record follows

{"columns": ["MOLECULE", "ASSAY TARGET", "inhibition, %"],
 "data": [
  ["COC[C@@H]1CCCN1C(=O)[C@@H]1CCCN1c1nccc(Nc2ccccc2)n1", "Ribosomal protein S6 kinase beta-1 (Homo sapiens) (UniProt P23443)", 8],
  ["Cc1cccc(Nc2nccc(Nc3cccc(C(=O)NCc4ccc(N(C)C)cc4)c3)n2)c1", "Ribosomal protein S6 kinase beta-1 (Homo sapiens) (UniProt P23443)", 9],
  ["CN(CCCn1ccnc1)C(=O)[C@@H]1CCCN1c1nccc(Nc2ccccc2)n1", "Ribosomal protein S6 kinase beta-1 (Homo sapiens) (UniProt P23443)", 6],
  ["Nc1nc(Nc2ccc3ncsc3c2)cc(N2CCC[C@H]2C(=O)N[C@@H](CO)c2ccccc2)n1", "Ribosomal protein S6 kinase beta-1 (Homo sapiens) (UniProt P23443)", 5],
  ["Cc1cccc(N(C)c2cc(Nc3ccc(CC(=O)Nc4ccc5ncsc5c4)cc3)ncn2)c1", "Ribosomal protein S6 kinase beta-1 (Homo sapiens) (UniProt P23443)", 18],
  ["CN(CCc1ccccn1)C(=O)[C@@H]1CCCN1c1nccc(Nc2ccccc2)n1", "Ribosomal protein S6 kinase beta-1 (Homo sapiens) (UniProt P23443)", 12],
  ["Cc1cccc(Nc2nccc3c2CN(C(=O)c2cc(C)n(C)c2C)CC3)c1", "Ribosomal protein S6 kinase beta-1 (Homo sapiens) (UniProt P23443)", 6],
  ["CN(C)CC(C)(C)CNC(=O)[C@@H]1CCCN1c1nccc(Nc2ccccc2)n1", "Ribosomal protein S6 kinase beta-1 (Homo sapiens) (UniProt P23443)", 13],
  ["COC(=O)C(CO)NC(=O)[C@@H]1CCCN1c1nccc(Oc2cccc(C)c2)n1 (stereo not given in full)", "Ribosomal protein S6 kinase beta-1 (Homo sapiens) (UniProt P23443)", 5],
  ["O=C(c1nc(SCc2ccc(Cl)cc2)n2ccccc12)N1CCN(c2ncnc3c2CN(Cc2ccccc2)CC3)CC1", "Ribosomal protein S6 kinase beta-1 (Homo sapiens) (UniProt P23443)", 3],
  ["Cc1cccc(CN2CCN(c3cc(N(C)c4cccc(C)c4)ncn3)CC2)c1", "Ribosomal protein S6 kinase beta-1 (Homo sapiens) (UniProt P23443)", 10],
  ["Cc1cccc(Oc2ccnc(N3CCN(CC(=O)Nc4cccc5c4CCCC5)CC3)n2)c1", "Ribosomal protein S6 kinase beta-1 (Homo sapiens) (UniProt P23443)", 14],
  ["O=C(NCCc1ccc(O)cc1)c1cccc(Nc2nccc(Nc3ccc4ncsc4c3)n2)c1", "Ribosomal protein S6 kinase beta-1 (Homo sapiens) (UniProt P23443)", 0],
  ["Cc1ccc(CN2CCN(c3nccc(C(C#N)c4ccccn4)n3)CC2)cc1 (stereo not given)", "Ribosomal protein S6 kinase beta-1 (Homo sapiens) (UniProt P23443)", 11],
  ["Nc1nc(Nc2ccccc2)cc(N2CCC(C(=O)NCCc3ccccn3)CC2)n1", "Ribosomal protein S6 kinase beta-1 (Homo sapiens) (UniProt P23443)", 5],
  ["Cc1cccc(N(C)c2cc(N3CCN(C(=O)Cc4c[nH]c5ccccc45)CC3)ncn2)c1", "Ribosomal protein S6 kinase beta-1 (Homo sapiens) (UniProt P23443)", 7],
  ["COc1cccc(Nc2cc(N3CCC[C@H]3C(=O)NCCN3CCCCC3)nc(N)n2)c1", "Ribosomal protein S6 kinase beta-1 (Homo sapiens) (UniProt P23443)", 14],
  ["Cc1cccc(Nc2cc(Nc3cccc(C(=O)N(CC(C)O)CC(C)O)c3)ncn2)c1 (stereo not given)", "Ribosomal protein S6 kinase beta-1 (Homo sapiens) (UniProt P23443)", 14],
  ["O=C(NCc1ccncc1)c1cccc(Nc2cc(Nc3cccc(Br)c3)ncn2)c1", "Ribosomal protein S6 kinase beta-1 (Homo sapiens) (UniProt P23443)", 16],
  ["Cc1cccc(N(C)c2cc(Nc3cccc(C(=O)NCc4ccc(N(C)C)cc4)c3)ncn2)c1", "Ribosomal protein S6 kinase beta-1 (Homo sapiens) (UniProt P23443)", 3]
]}
